Can you tell me Contractile Force of Auricle Muscles for the items I'm about to list?
# Tested on: left auricle muscle
# assay-method-text: Contractile force of left auricle muscle excised from rats
# Parameters: species or system rat
# reported-conditions: 1 × 10^−4 M; vehicle control:100%
Write the answer as a number in %, unit excluded.

Contractile Force of Auricle Muscles recorded for this compound, Oc1ccc(CC2NCCc3cc(O)c(O)cc32)cc1 (racemic) [Racemic mixture of formula 3 and formula 4, higenamine, reference compound] , is 300

Query Oc1cc2c(cc1O)C(Cc1cccc3ccccc13)NCC2 (racemic) [Racemic mixture of formula 5 and formula 6, reference compound] yields Contractile Force of Auricle Muscles of 490

Oc1ccc(C[C@H]2NCCc3cc(O)c(O)cc32)cc1 [Formula 4] yielded Contractile Force of Auricle Muscles of 300

Sample Oc1cc2c(cc1O)[C@@H](Cc1cccc3ccccc13)NCC2 [Formula 6] ; Contractile Force of Auricle Muscles observed: 50

// recorded Contractile Force of Auricle Muscles for Oc1cc2c(cc1O)C(Cc1ccc3ccccc3c1)NCC2 (racemic) [Racemic mixture of formula 7 and formula 8, reference compound] : 310

Looking up Oc1cc2c(cc1O)[C@H](Cc1cccc3ccccc13)NCC2 [Formula 5] , I found its Contractile Force of Auricle Muscles recorded as 700

The compound identified as Oc1cc2c(cc1O)[C@H](Cc1ccc3ccccc3c1)NCC2 [Formula 7] registered its Contractile Force of Auricle Muscles at 380

Record summary for Oc1ccc(C[C@@H]2NCCc3cc(O)c(O)cc32)cc1 [Formula 3] : reported Contractile Force of Auricle Muscles = 300

Lab book: Contractile Force of Auricle Muscles of Oc1cc2c(cc1O)[C@@H](Cc1ccc3ccccc3c1)NCC2 [Formula 8] noted as 105

====

Consider the following molecules; for each one, report its Heart Rates of Auricle Muscles.
# Tested on: right auricle muscle
# assay-method-text: Heart rates (beats) of right auricle muscle excised from rats
# Set-up: species or system rat
# reported-conditions: 1 × 10^−5 M; vehicle control:100%
The reply should contain only the number, in %.

Log: right auricle muscle, molecule Oc1ccc(C[C@H]2NCCc3cc(O)c(O)cc32)cc1 , Heart Rates of Auricle Muscles = 120

The value of Heart Rates of Auricle Muscles recorded for Oc1cc2c(cc1O)[C@@H](Cc1ccc3ccccc3c1)NCC2 when tested on right auricle muscle reads 105

Tested system right auricle muscle; Heart Rates of Auricle Muscles recorded for Oc1cc2c(cc1O)[C@H](Cc1cccc3ccccc13)NCC2 was 180

Tested on right auricle muscle, the item Oc1cc2c(cc1O)[C@H](Cc1ccc3ccccc3c1)NCC2 showed Heart Rates of Auricle Muscles equal to 175

Hey, right auricle muscle data for Oc1cc2c(cc1O)[C@@H](Cc1cccc3ccccc13)NCC2 : Heart Rates of Auricle Muscles came out at 85

====

Would you kindly list LD50 for each of these molecules?
# assay-method-text: Acute toxicity in rat (LD50)
# Type: in vivo
# reported-conditions: Sprague-Dawley, in vivo, ip, single intraperitoneal injection, read-out: LD50, Intraperitioneal injection
Entry rule: numbers only, all in mg/kg.

Just so you know, measured LD50 for Oc1cc2c(cc1O)C(Cc1ccc3ccccc3c1)NCC2 (racemic) [Racemic mixture of formula 7 and formula 8, reference compound] came out at 220

Entry Oc1ccc(C[C@H]2NCCc3cc(O)c(O)cc32)cc1 — recorded LD50 = 262

molecule Oc1cc2c(cc1O)[C@H](Cc1cccc3ccccc13)NCC2 , LD50 observed: 397

The recorded LD50 for entry Oc1cc2c(cc1O)[C@@H](Cc1ccc3ccccc3c1)NCC2 equals 214

Record summary for Oc1cc2c(cc1O)[C@H](Cc1ccc3ccccc3c1)NCC2 : reported LD50 = 376

Briefly, LD50 measured for Oc1ccc(C[C@@H]2NCCc3cc(O)c(O)cc32)cc1 : 450

Short answer for Oc1cc2c(cc1O)[C@@H](Cc1cccc3ccccc13)NCC2 : LD50 was 230

Where do the numbers come from? From patent US20060058346A1.
